Recorded values, source patent US20100227887A1.

Observed Ki, system human mGlu 5a receptor (Homo sapiens, UniProt P41594).
Output spec: scalar in nM, unitless text.

// map `N#Cc1cc(C(=O)Nc2ccc(F)cn2)nc(C(F)(F)F)c1` to recorded Ki (system: human mGlu 5a receptor (Homo sapiens, UniProt P41594))
Sequence (P41594 21-1180 isoform P41594-2 limits assumed): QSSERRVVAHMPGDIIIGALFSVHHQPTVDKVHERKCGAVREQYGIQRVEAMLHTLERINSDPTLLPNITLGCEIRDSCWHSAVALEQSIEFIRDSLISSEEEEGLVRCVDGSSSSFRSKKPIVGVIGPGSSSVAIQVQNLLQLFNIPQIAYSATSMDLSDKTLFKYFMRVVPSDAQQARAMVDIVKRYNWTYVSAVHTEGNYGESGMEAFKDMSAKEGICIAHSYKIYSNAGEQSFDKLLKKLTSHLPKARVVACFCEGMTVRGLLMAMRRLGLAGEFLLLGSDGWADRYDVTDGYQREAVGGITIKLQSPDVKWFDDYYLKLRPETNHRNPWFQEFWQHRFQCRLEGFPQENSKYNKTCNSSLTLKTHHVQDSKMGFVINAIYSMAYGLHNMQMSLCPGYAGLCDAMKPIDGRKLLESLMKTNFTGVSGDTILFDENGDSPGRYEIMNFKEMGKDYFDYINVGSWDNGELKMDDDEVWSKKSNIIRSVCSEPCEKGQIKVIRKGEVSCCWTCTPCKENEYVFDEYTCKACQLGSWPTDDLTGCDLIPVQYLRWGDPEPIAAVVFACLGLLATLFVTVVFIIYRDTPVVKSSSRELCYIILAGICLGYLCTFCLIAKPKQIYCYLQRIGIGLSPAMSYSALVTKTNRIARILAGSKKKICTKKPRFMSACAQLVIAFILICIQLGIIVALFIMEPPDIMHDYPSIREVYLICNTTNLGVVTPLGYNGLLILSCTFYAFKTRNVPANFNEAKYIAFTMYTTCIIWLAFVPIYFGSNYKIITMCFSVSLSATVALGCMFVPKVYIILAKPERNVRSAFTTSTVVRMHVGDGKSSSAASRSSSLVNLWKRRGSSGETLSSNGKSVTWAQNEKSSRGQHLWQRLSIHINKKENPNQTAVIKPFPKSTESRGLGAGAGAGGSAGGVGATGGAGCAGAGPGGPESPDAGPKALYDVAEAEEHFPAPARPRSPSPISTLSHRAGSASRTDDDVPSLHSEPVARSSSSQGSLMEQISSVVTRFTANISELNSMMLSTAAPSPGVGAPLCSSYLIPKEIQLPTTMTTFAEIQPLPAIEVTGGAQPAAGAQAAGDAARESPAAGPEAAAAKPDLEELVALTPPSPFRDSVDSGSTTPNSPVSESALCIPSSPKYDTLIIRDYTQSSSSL
139

// map `CCc1cc(C#N)cc(C(=O)Nc2ccc(F)cn2)n1` to recorded Ki (system: human mGlu 5a receptor (Homo sapiens, UniProt P41594))
11

// map `Cc1cc(Cl)cc(C(=O)Nc2cccc(Cl)c2)n1` to recorded Ki (system: human mGlu 5a receptor (Homo sapiens, UniProt P41594))
55

// map `Cc1cc(C#N)cc(C(=O)Nc2ccnc(Cl)c2)n1` to recorded Ki (system: human mGlu 5a receptor (Homo sapiens, UniProt P41594))
25

// map `Cc1cc(C#N)cc(C(=O)Nc2ccn(C)n2)n1` to recorded Ki (system: human mGlu 5a receptor (Homo sapiens, UniProt P41594))
38
